# experimentDescription: chemical genetic growth profiling, strain panel (AID 1159580);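 further: tested at 20 µM; growth read once vehicle control cultures reached saturation at 30 °C; 1 = growth at the plate median or of vehicle wells; lower values mean less growth of the strain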
# testParameters: S. cerevisiae deletion strains, growth OD, locus YKL009W, strain mrt4, stronger effect = lower value
The campaign covered roughly 5,500 compounds. About 2,000 (36%) were called active. Another 18% or so got no clear call; they are omitted. This is one part of the list.
Below, each of the molecules is paired with its reported normalized growth value.

| molecule | normalized growth |
| --- | --- |
| CC(=O)O.CC(=O)O.[Cd] | 0.639 |
| COc1cc(O)c2c(=O)c(-c3ccc(O)cc3)coc2c1 | 0.88 |
| CC(=O)Oc1cc(OC(C)=O)c2c(=O)c(-c3ccccc3)coc2c1 | 1.02 |
| O=c1c2ccccc2oc2ccc(O)cc12 | 0.939 |
| Cc1coc2ccccc2c1=O | 1.02 |
| O=C(O)/C=C(\CC(=O)O)C(=O)O | 0.957 |
| CC(=O)CC(c1ccccc1)c1c(O)c2ccccc2oc1=O (stereo not drawn) | 1 |
| CCC(/C=C/[C@@H](C)[C@H]1CCC2C3CC=C4C[C@@H](O)CC[C@]4(C)C3CC[C@@]21C)C(C)C (stereo partly drawn) | 1.02 |
| O=c1oc2ccccc2c(O)c1Cc1c(O)c2ccccc2oc1=O | 0.944 |
| CC(=O)[C@H]1CCC2C3CC=C4C[C@@H](O)CC[C@]4(C)C3CC[C@@]21C (stereo partly drawn) | 0.856 |
| O=c1c(-c2ccccc2)coc2cc(O)cc(O)c12 | 0.859 |
| O=c1c(-c2ccc(O)cc2)coc2cc(O)cc(O)c12 | 1.04 |
| N[C@@H]1CONC1=O | 1.03 |

Data origin: PubChem BioAssay AID1159580
